- TGT: recombinant homotrimeric HA A/Indonesia/5/05 H5N1 (Influenza A virus A/Indonesia/5/2005(H5N1))
- ASSAY_OVERVIEW: protein microarray, purified IgG, trimeric HA
- CONDITION_CONTEXT: remark: other sources report otherwise
TEST_READOUT: Trimeric HA Binding: RLU (RLU)
The figure you give is taken to be in RLU; do not add the unit.

Prompt line: // lookup Trimeric HA Binding: RLU for TCN-543 (5081_G23) (antibody, V domains shown) VH: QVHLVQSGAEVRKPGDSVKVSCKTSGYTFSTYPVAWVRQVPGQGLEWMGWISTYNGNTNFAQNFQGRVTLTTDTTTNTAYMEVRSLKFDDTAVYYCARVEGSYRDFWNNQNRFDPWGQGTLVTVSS VL: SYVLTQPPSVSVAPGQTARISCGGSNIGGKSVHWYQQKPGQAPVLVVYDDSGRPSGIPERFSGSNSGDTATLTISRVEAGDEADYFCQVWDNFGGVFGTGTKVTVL
Response line: 91
